Below, each entry is listed alongside its reported protein stability index.
B1: SMG5 (parent)
chain: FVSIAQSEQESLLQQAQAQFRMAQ

Variants of: B1
Test: protein stability index of a GFP-peptide fusion (GPS, HEK-293T) (PSI 1-6); higher = more stable;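 note: lentivirally expressed fusions sorted by FACS into six bins by GFP to DsRed ratio, PSI derived from sequencing read proportions per bin multiplied by bin number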
Conditions: c terminus: a fixed tail appended
Answer with the value's number alone.

FVSIAQSETESLLQQAQAQFRMAQ [Q9T] ... 2.9
FVSIAQSEQESLLQQAQAQSRMAQ [F20S] ... 2.57
FNSIAQSEQESLLQQAQAQFRMAQ [V2N] ... 4.14
FVSIAQSEQESLLQQAQHQFRMAQ [A18H] ... 2.19
FSSIAQSEQESLLQQAQAQFRMAQ [V2S] ... 3.45

Now look at this one.
Qu. Report protein stability index for FVSIAQSEQESLLQQAQAQTRMAQ [F20T]
Ans. 3.17
